- Tested on: PC-3 prostate
- RUN_DESCRIPTION: NCI-60 one-dose screen, 48 h (100 = growth as untreated, 0 = no growth, -100 = all killed)
- ASSAY_SETUP: 10 µM unless noted
Compounds without any hit were thinned out: in the full panel of roughly 83,000, 20% have a hit.
Reported growth by item:
Value expressed in %; do not type the unit.

Known growth results, listed for orientation:
COc1ccc2c(c1)O/C(=C/c1ccc(OCC(=O)c3ccccc3)cc1)C2=O ... 96.2
CC(=O)N1N=C(c2ccc(Nc3nc(Nc4ccc(F)cc4)nc(Nc4ccc(F)cc4)n3)cc2)CC1c1cccc([N+](=O)[O-])c1 (centres undefined) ... 70.9

Request: Quick check: growth of COc1cc(OC)cc(C2CC(=O)Nc3c2c(C)nn3-c2nc3ccccc3[nH]2)c1 (centres undefined) ?
Response: 26.4

Request: Record: `Cc1ccc(N(C(=O)CCc2c[nH]c3ccccc23)[C@H](C(=O)Nc2ccc(Cl)cc2)c2cccc([N+](=O)[O-])c2)cc1`
Response: 62.2
